The measured values listed here are drawn from patent US11147802B2.

The reader will find reported half-life at 1 μM values listed item by item below.
- PROCEDURE DETAILS: Metabolic stability in rat liver microsomes
- Format: in vitro ADME
- ASSAY SETUP: Sprague-Dawley (SD), pH 7.4, 1 μM compound, 0.5 mg/mL protein, 37° C., read-out: Rat liver microsomes t1/2
PARAMETER: half-life at 1 μM (h)

MOLECULE	PARAMETER	REPORTED
[2H]C([2H])(CNS(N)(=O)=O)Nc1nonc1/C(=N\c1ccc(F)c(Br)c1)NO	half-life at 1 μM	1.22
[2H]c1cc(F)c(Br)c([2H])c1/N=C(/NO)c1nonc1NCCNS(N)(=O)=O	half-life at 1 μM	1.18
[2H]C([2H])(Nc1nonc1/C(=N\c1ccc(F)c(Br)c1)NO)C([2H])([2H])NS(N)(=O)=O	half-life at 1 μM	1.23
[2H]c1cc(/N=C(/NO)c2nonc2NC([2H])([2H])C([2H])([2H])NS(N)(=O)=O)cc(Br)c1F	half-life at 1 μM	1.2
[2H]C([2H])(CNc1nonc1/C(=N\c1ccc(F)c(Br)c1)NO)NS(N)(=O)=O	half-life at 1 μM	1.1
NS(=O)(=O)NCCNc1nonc1C(=NO)Nc1ccc(F)c(Br)c1 [Epacadostat, reference compound]	half-life at 1 μM	1.15
[2H]c1c([2H])c(/N=C(/NO)c2nonc2NCC([2H])([2H])NS(N)(=O)=O)c([2H])c(Br)c1F	half-life at 1 μM	1.02

----------
- PROCEDURE DETAILS: Metabolic stability in rat liver microsomes
- Format: in vitro ADME
- ASSAY SETUP: Sprague-Dawley (SD), pH 7.4, 1 μM compound, 0.5 mg/mL protein, 37° C.
The entries below are paired with their reported microsomal CLint at 1 μM.

COMPOUND	UOM	microsomal CLint at 1 μM
[2H]c1cc(/N=C(/NO)c2nonc2NC([2H])([2H])C([2H])([2H])NS(N)(=O)=O)cc(Br)c1F	µL/min/mg	19.2
[2H]c1c([2H])c(/N=C(/NO)c2nonc2NCC([2H])([2H])NS(N)(=O)=O)c([2H])c(Br)c1F	µL/min/mg	22.6
[2H]c1c([2H])c(/N=C(/NO)c2nonc2NC([2H])([2H])C([2H])([2H])NS(N)(=O)=O)c([2H])c(Br)c1F	µL/min/mg	20.5
NS(=O)(=O)NCCNc1nonc1C(=NO)Nc1ccc(F)c(Br)c1 [Epacadostat, reference compound]	µL/min/mg	20.1

----------
- PROCEDURE DETAILS: Metabolic stability in rat liver microsomes
- Type: in vitro ADME
- ASSAY SETUP: Sprague-Dawley (SD), pH 7.4, 1 μM compound, 0.5 mg/mL protein, 37° C.

COMPOUND	UOM	microsomal CLint at 1 μM
[2H]c1c([2H])c(/N=C(/NO)c2nonc2NCCNS(N)(=O)=O)c([2H])c(Br)c1F [Compound 66]	µL/min/mg	17.5
[2H]C([2H])(CNc1nonc1/C(=N\c1ccc(F)c(Br)c1)NO)NS(N)(=O)=O [Compound 41]	µL/min/mg	21
[2H]C([2H])(Nc1nonc1/C(=N\c1ccc(F)c(Br)c1)NO)C([2H])([2H])NS(N)(=O)=O [Compound 47]	µL/min/mg	18.7
